Values from the supplement of paper PMC11246515

Experiment: total protein half-life in vivo (active degradation + dilution); higher = more stable protein
Conditions: E. coli NCM3722 delta-lon; growth: N-lim chemostat; doubling time 6 h
Recorded metric: total protein half-life in vivo
Write down the value, and be sure its unit follows.

• MAILGLGTDIVEIARIEAVIARSGDRLARRVLSDNEWAIWKTHHQPVRFLAKRFAVKEAAAKAFGTGIRNGLAFNQFEVFNDELGKPRLRLWGEALKLAEKLGVANMHVTLADERHYACATVIIES = 5.71 h

Proceeding to the next sequence to report its total protein half-life in vivo.
Incoming: I am curious: what total protein half-life in vivo value has been reported for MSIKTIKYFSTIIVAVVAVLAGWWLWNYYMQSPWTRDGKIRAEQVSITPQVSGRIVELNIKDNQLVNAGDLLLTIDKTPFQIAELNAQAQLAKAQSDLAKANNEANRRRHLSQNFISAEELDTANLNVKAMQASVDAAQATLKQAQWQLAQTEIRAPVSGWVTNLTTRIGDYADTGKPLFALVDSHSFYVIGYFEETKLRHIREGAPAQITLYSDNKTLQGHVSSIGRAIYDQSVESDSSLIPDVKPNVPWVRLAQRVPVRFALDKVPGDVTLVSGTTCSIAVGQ ?
Outgoing: 6.46 h

###

total protein half-life in vivo reference
Assay: total protein half-life in vivo (active degradation + dilution); higher = more stable protein
Conditions: wild type E. coli NCM3722; growth: N-lim chemostat; doubling time 12 h
Number in h, nothing else.

Below, each entry is followed by its recorded total protein half-life in vivo result.
• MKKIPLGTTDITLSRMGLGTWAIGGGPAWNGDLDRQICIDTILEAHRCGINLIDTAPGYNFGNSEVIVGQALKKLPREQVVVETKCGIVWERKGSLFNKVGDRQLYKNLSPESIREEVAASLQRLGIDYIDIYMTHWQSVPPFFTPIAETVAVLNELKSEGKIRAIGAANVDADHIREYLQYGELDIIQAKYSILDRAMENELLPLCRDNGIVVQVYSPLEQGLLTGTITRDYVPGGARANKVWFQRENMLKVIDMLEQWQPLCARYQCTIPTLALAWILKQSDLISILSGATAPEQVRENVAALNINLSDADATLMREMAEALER = 6.75
• MERNVTLDFVRGVAILGILLLNISAFGLPKAAYLNPAWYGAITPRDAWTWAFLDLIGQVKFLTLFALLFGAGLQMLLPRGRRWIQSRLTLLVLLGFIHGLLFWDGDILLAYGLVGLICWRLVRDAPSVKSLFNTGVMLYLVGLGVLLLLGLISDSQTSRAWTPDASAILYEKYWKLHGGVEAISNRADGVGNSLLALGAQYGWQLAGMMLIGAALMRSGWLKGQFSLRHYRRTGFVLVAIGVTINLPAIALQWQLDWAYRWCAFLLQMPRELSAPFQAIGYASLFYGFWPQLSRFKLVLAIACVGRMALTNYLLQTLICTTLFYHLGLFMHFDRLELLAFVIPVWLANILFSVIWLRYFRQGPVEWLWRQLTLRAAGPAISKTSR = 7.45
• MKIFLENLYHSDCYFLPIRDNQQVLVGVELITHFSSEDGTVRIPTSRVIAQLTEEQHWQLFSEQLELLKSCQHFFIQHKLFAWLNLTPQVATLLLERDNYAGELLKYPFIELLINENYPHLNEGKDNRGLLSLSQVYPLVLGNLGAGNSTMKAVFDGLFTRVMLDKSFIQQQITHRSFEPFIRAIQAQISPCCNCIIAGGIDTAEILAQITPFDFHALQGCLWPAVPINQITTLVQR = 7.69

Incoming: So what's the measured total protein half-life in vivo for this one? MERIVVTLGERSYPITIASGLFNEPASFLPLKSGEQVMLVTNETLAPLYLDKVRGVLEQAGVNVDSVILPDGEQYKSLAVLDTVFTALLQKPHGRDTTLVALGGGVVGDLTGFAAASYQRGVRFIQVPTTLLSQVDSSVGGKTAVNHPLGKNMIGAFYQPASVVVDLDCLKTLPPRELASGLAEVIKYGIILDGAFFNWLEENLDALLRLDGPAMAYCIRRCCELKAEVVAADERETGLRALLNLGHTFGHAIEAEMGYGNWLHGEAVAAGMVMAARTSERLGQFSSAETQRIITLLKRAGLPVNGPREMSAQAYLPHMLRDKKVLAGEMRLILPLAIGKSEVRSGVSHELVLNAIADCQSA
Outgoing: 5.45

Incoming: What measured total protein half-life in vivo goes with MKYKHLILSLSLIMLGPLAHAEEIGSVDTVFKMIGPDHKIVVEAFDDPDVKNVTCYVSRAKTGGIKGGLGLAEDTSDAAISCQQVGPIELSDRIKNGKAQGEVVFKKRTSLVFKSLQVVRFYDAKRNALAYLAYSDKVVEGSPKNAISAVPVMPWRQ [P0AE91] ?
Outgoing: 13.3

###

Test: total protein half-life in vivo (active degradation + dilution); higher = more stable protein
Conditions: wild type E. coli NCM3722; growth: P-lim chemostat; doubling time 12 h
Recorded metric: total protein half-life in vivo (h)
The figure you give is taken to be in h; do not add the unit.

Incoming: Query (sequence): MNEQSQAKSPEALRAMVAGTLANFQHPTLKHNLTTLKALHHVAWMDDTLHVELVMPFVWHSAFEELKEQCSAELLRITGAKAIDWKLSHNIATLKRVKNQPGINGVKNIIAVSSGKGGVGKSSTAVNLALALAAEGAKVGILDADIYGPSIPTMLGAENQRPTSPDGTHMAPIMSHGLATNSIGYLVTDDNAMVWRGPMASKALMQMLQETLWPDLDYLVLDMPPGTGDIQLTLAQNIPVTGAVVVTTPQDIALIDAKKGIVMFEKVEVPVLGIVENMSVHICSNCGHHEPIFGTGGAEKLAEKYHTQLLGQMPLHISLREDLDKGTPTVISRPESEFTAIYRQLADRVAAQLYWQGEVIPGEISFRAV [P0AF08] ; field requested: total protein half-life in vivo
Outgoing: 9.96

###

Assay: total protein half-life in vivo (active degradation + dilution); higher = more stable protein
Details: wild type E. coli NCM3722; growth: C-lim chemostat; doubling time 12 h
Recorded metric: total protein half-life in vivo (h)
Report as a plain number; the unit h is understood.

Incoming: Sample MSAVLTAEQALKLVGEMFVYHMPFNRALGMELERYEKEFAQLAFKNQPMMVGNWAQSILHGGVIASALDVAAGLVCVGSTLTRHETISEDELRQRLSRMGTIDLRVDYLRPGRGERFTATSSLLRAGNKVAVARVELHNEEQLYIASATATYMVG [P0ADP2] — what was its total protein half-life in vivo?
Outgoing: 7.1

Incoming: # lookup: total protein half-life in vivo of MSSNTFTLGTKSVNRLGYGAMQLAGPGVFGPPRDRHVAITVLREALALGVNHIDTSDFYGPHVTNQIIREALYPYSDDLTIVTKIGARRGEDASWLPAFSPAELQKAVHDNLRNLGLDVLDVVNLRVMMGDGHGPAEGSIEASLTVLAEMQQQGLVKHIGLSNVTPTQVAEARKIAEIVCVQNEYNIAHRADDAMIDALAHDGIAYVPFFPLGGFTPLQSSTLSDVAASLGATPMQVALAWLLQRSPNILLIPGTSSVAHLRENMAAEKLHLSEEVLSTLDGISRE
Outgoing: 10.8

Incoming: Name the reported total protein half-life in vivo value associated with the sequence MKRKVLLIPLIIFLAIAAALLWQLARNAEGDDPTNLESALIGKPVPKFRLESLDNPGQFYQADVLTQGKPVLLNVWATWCPTCRAEHQYLNQLSAQGIRVVGMNYKDDRQKAISWLKELGNPYALSLFDGDGMLGLDLGVYGAPETFLIDGNGIIRYRHAGDLNPRVWEEEIKPLWEKYSKEAAQ [P0AA86]
Outgoing: 13.3

###

Assay: total protein half-life in vivo (active degradation + dilution); higher = more stable protein
Conditions: E. coli NCM3722 delta-smpB; growth: N-lim chemostat; doubling time 6 h
Recorded metric: total protein half-life in vivo (h)
// return numeric value only (unit: h, not printed)

- MPLSAQQLAAQKNLSYVLAEKLAQRILKGEYEPGTILPGEIELGEQFGVSRTAVREAVKTLTAKGMVLPRPRIGTRVMPQSNWNFLDQELLTWWMTEENFHQVIDHFLVMRICLEPQACLLAATVGTAEQKAHLNTLMAEMAALKENFRRERWIEVDMAWHEHIYEMSANPFLTSFASLFHSVYHTYFTSITSDTVIKLDLHQAIVDAIIQSDGDAAFKACQALLRSPDK: 5.77

Incoming: Given the sequence MVKLPPLSLYIHIPWCVQKCPYCDFNSHALKGEVPHDDYVQHLLNDLDNDVAYAQGREVKTIFIGGGTPSLLSGPAMQTLLDGVRARLPLAADAEITMEANPGTVEADRFVDYQRAGVNRISIGVQSFSEEKLKRLGRIHGPQEAKRAAKLASGLGLRSFNLDLMHGLPDQSLEEALGDLRQAIELNPPHLSWYQLTIEPNTLFGSRPPVLPDDDALWDIFEQGHQLLTAAGYQQYETSAYAKPGYQCQHNLNYWRFGDYIGIGCGAHGKVTFPDGRILRTTKTRHPRGFMQGRYLESQRDVEATDKPFEFFMNRFRLLEAAPRVEFIAYTGLCEDVIRPQLDEAIAQGYLTECADYWQITEHGKLFLNSLLELFLAE , what is its reported total protein half-life in vivo?
Outgoing: 3.73
